Origin of values: the supplement of paper PMC10307832

system: NCI-H2009; experiment: relative viability (nuclei count vs DMSO), 5 days (fraction); higher = more cells survive; settings: first compound 0.006325 µM
# relative viability per record follows
OBSERVED PROPERTY: relative viability

- COMPOUND: "CC(=O)O[C@@]12CO[C@@H]1C[C@H](O)[C@@]1(C)C(=O)[C@H](O)C3=C(C)[C@@H](OC(=O)[C@H](O)[C@@H](NC(=O)OC(C)(C)C)c4ccccc4)C[C@@](O)([C@@H](OC(=O)c4ccccc4)[C@H]21)C3(C)C [Docetaxel] + CC(C)C[C@H](NC(=O)[C@H](Cc1ccccc1)NC(=O)c1cnccn1)B(O)O [Bortezomib] (partner 0.002 µM)"
  MEASURED NUMBER: 0.263
- COMPOUND: "CC(=O)O[C@@]12CO[C@@H]1C[C@H](O)[C@@]1(C)C(=O)[C@H](O)C3=C(C)[C@@H](OC(=O)[C@H](O)[C@@H](NC(=O)OC(C)(C)C)c4ccccc4)C[C@@](O)([C@@H](OC(=O)c4ccccc4)[C@H]21)C3(C)C [Docetaxel] + O=C(CCCCCCC(=O)Nc1ccccc1)NO [Vorinostat] (partner 1 µM)"
  MEASURED NUMBER: 0.301
- COMPOUND: "CC(=O)O[C@@]12CO[C@@H]1C[C@H](O)[C@@]1(C)C(=O)[C@H](O)C3=C(C)[C@@H](OC(=O)[C@H](O)[C@@H](NC(=O)OC(C)(C)C)c4ccccc4)C[C@@](O)([C@@H](OC(=O)c4ccccc4)[C@H]21)C3(C)C [Docetaxel] + COc1cc2c(Oc3ccc(NC(=O)C4(C(=O)Nc5ccc(F)cc5)CC4)cc3F)ccnc2cc1OCCCN1CCOCC1 [Foretinib] (partner 0.25 µM)"
  MEASURED NUMBER: 0.467

---

# relative viability per record follows
tested on: COR-L23; assay: relative viability (nuclei count vs DMSO), 5 days (fraction); higher = more cells survive; settings: first compound 15.81 µM

- COMPOUND: "O=C(O)CCCCC(CCSCc1ccccc1)SCc1ccccc1 (stereo unspecified) [CPI-613] + Nc1ncn([C@H]2C[C@H](O)[C@@H](CO)O2)c(=O)n1 [Decitabine] (partner 2 µM)"
  relative viability: 0.367
- COMPOUND: "O=C(O)CCCCC(CCSCc1ccccc1)SCc1ccccc1 (stereo unspecified) [CPI-613] + CC(=O)c1c(C)c2cnc(Nc3ccc(N4CCNCC4)cn3)nc2n(C2CCCC2)c1=O [Palbociclib] (partner 0.5 µM)"
  relative viability: 0.321
- COMPOUND: "O=C(O)CCCCC(CCSCc1ccccc1)SCc1ccccc1 (stereo unspecified) [CPI-613] + COc1cc2c(Oc3ccc(NC(=O)C4(C(=O)Nc5ccc(F)cc5)CC4)cc3F)ccnc2cc1OCCCN1CCOCC1 [Foretinib] (partner 0.25 µM)"
  relative viability: 0.995
- COMPOUND: "O=C(O)CCCCC(CCSCc1ccccc1)SCc1ccccc1 (stereo unspecified) [CPI-613] + CC(C)C[C@H](NC(=O)[C@H](Cc1ccccc1)NC(=O)c1cnccn1)B(O)O [Bortezomib] (partner 0.002 µM)"
  relative viability: 0.941
- COMPOUND: "O=C(O)CCCCC(CCSCc1ccccc1)SCc1ccccc1 (stereo unspecified) [CPI-613] + Cc1nc(Nc2ncc(C(=O)Nc3c(C)cccc3Cl)s2)cc(N2CCN(CCO)CC2)n1 [Dasatinib] (partner 0.075 µM)"
  relative viability: 0.493
- COMPOUND: "O=C(O)CCCCC(CCSCc1ccccc1)SCc1ccccc1 (stereo unspecified) [CPI-613] + C[C@]1(O)C[C@@H](c2nc(-c3ccc4ccc(-c5ccccc5)nc4c3)c3c(N)nccn32)C1 [Linsitinib] (partner 1 µM)"
  relative viability: 0.918
